Every entry's value here was drawn from patent US6964983B2.

- ASSAY_TARGET: hPPARβ (Homo sapiens, UniProt Q03181)
- Sequence (Q03181 171-441 limits assumed): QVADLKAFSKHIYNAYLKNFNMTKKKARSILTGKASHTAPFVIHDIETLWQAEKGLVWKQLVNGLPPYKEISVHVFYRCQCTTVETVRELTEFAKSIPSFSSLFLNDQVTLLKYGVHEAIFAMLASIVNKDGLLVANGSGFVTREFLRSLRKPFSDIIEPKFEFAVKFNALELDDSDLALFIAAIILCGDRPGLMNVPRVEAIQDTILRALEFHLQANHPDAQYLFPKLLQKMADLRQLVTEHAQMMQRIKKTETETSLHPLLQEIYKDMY
- ASSAY_NOTES: Transient transfection assay in HepG2 cells, Gal4-hPPARβ chimeric receptor, luciferase reporter
- Assay type: cell-based
- ASSAY_SETUP: Hep G2-hBeta EC50, 24 hours incubation; read-out: EC50β nM (Group)
- Source text: 1. Test A. Transient Transfections Assay using the HepG2 Hepatoma Cell Line. HepG2 cells were transiently transfected with an expression plasmids encoding hPPARα, hPPARβ or mPPARγ chimeric receptors and a reporter containing the yeast upstream activating sequence (UAS) upstream of the viral E1B promoter controlling a luciferase reporter gene. In addition, the plasmid pRSVβ-gal was used to control for transfection efficiency. […]
ENDPOINT_LABEL: EC50

O=C(O)COc1ccc(SCc2ccccc2OCc2ccc(C(F)(F)F)cc2)c2c1CCC2 | < 300 nM
O=C(O)COc1ccc(CCc2ccc(-c3ccc(C(F)(F)F)cc3)cc2)c2c1CCC2 | 2000 to 5000 nM
O=C(O)COc1ccc(SCc2ccc(OCc3ccc(F)c(C(F)(F)F)c3)cc2)c2c1CCC2 | < 300 nM

// EC50 lookup, key: `O=C(O)COc1ccc(SCc2ccc(OCc3ccc(F)cc3)cc2)c2c1CCC2`
> 5000 nM

Suppose we examine the compound `COc1cc(OCC(=O)O)c(C)cc1SCc1cc(-c2ccc(C(F)(F)F)cc2)on1` ; what EC50 value has been reported?
< 300 nM

Recorded EC50 of `O=C(O)COc1ccc(SCc2ccc(OCc3cc(Cl)ccc3Cl)cc2)c2c1CCC2` , please.
500 to 1000 nM

What value of EC50 has been recorded for this entry: `O=C(O)COc1ccc(SCc2cc(-c3ccccc3Cl)on2)c2c1CCC2`
2000 to 5000 nM

Can you look up the measured EC50 of `O=C(O)COc1ccc(SCc2ccc(OCc3ccc(F)cc3C(F)(F)F)cc2)c2c1CCC2` for me?
1000 to 2000 nM

# EC50 lookup, item `COc1cc(OCC(=O)O)c(C)cc1SCCc1ccc(-c2ccc(C(F)(F)F)cc2)cc1`
< 300 nM

Sample `Cc1cc(SCc2ccc3c(c2)Cc2ccccc2-3)ccc1OCC(=O)O` — what was its EC50?
1000 to 2000 nM
